- Test system: methamphetamine induced hyperlocomotion
- Measurement Notes: inhibition of Methamphetamine induced Hyperlocomotion
- Assay type: in vivo, mouse (male ICR)
- Test Context: mice, test drug 50 mg/kg i.p., 35 min before methamphetamine 1 mg/kg i.p.; measured for 30 min from 15 min later; **P < 0.01 (Dunnett's test)
Reported values of locomotor count, % to control group for individual entries

{"columns": ["Chemical String", "locomotor count, % to control group"],
 "data": [
  ["CCCN(CCC)Cc1cccc2[nH]c3ccccc3c12.Cl", "39.7%"],
  ["CCCN(CCC)CCc1cccc2[nH]c3c(C)ccc(C)c3c12.Cl", "35.3%"],
  ["CCCN(CCC)Cc1cccc2[nH]c3c(C)ccc(C)c3c12.Cl", "46.6%"],
  ["C[C@@H]1CN(CCCn2c3ccccc3c3ccccc32)C[C@H](C)N1", "51.4%"]
]}

---

- Test System: D2 receptor (Rattus norvegicus, UniProt P61169)
- Sequence (P61169 whole entry): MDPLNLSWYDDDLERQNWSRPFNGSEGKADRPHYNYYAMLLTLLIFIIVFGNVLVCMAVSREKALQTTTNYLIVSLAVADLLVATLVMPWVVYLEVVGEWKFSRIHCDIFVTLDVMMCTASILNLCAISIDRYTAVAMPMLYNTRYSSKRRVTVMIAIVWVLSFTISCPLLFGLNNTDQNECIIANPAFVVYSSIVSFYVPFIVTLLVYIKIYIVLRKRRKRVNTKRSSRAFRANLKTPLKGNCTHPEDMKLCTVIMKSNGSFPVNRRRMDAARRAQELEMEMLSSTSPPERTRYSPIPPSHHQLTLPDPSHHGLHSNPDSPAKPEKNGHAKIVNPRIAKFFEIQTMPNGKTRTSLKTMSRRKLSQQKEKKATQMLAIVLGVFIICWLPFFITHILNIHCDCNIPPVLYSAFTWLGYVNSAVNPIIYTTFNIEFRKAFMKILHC
- Measurement Notes: Receptor Binding Test: (-)-[3H]sulpiride binding, rat striatal membranes
pIC50: −log10 of the molar value.

{"columns": ["Molecule", "Test System", "pIC50"],
 "data": [
  ["CCCN(CCC)CCc1cccc2[nH]c3c(C)ccc(C)c3c12.Cl [Test drug C, hydrochloride]", "D2 receptor (Rattus norvegicus, UniProt P61169)", 4.84],
  ["CCCN(CCC)Cc1cccc2[nH]c3c(C)ccc(C)c3c12.Cl [Test drug B, hydrochloride]", "D2 receptor (Rattus norvegicus, UniProt P61169)", 4.63],
  ["CCCN(CCC)Cc1cccc2[nH]c3ccccc3c12.Cl [Test drug A, hydrochloride]", "D2 receptor (Rattus norvegicus, UniProt P61169)", 4.35]
]}

---

- Test System: phencyclidine receptor
- Measurement Notes: Receptor Binding Test: [3H]phencyclidine binding, rat whole brain membranes
- Set-up: species or system rat (male Wistar)
- Test Context: rat whole brain membrane, 5 mM Tris-HCl pH 7.7, 25° C., 2 hours
pIC50: −log10 of the molar value.
Metric Name: pIC50

{"columns": ["Compound", "Metric Name", "Result Value"],
 "data": [
  ["CCCN(CCC)Cc1cccc2[nH]c3c(C)ccc(C)c3c12.Cl [Test drug B, hydrochloride]", "pIC50", "< 5.00"],
  ["CCCN(CCC)Cc1cccc2[nH]c3ccccc3c12.Cl [Test drug A, hydrochloride]", "pIC50", "< 5.00"],
  ["CCCN(CCC)CCc1cccc2[nH]c3c(C)ccc(C)c3c12.Cl [Test drug C, hydrochloride]", "pIC50", "< 5.00"]
]}
